- Test system: Leishmania donovani
- measurement_notes: Leishmania intramacrophage assay
- Type: functional, organism-based
- Design: scale not given: in the data most compounds retested in dose-response had high values
- details: 30 µM
The whole screen tested about 69,000 compounds, of which about 1,000 (1.4%) showed an effect of 50% or more. This excerpt belongs to a sample that is enriched for strong results.
reported_endpoint: Percent Effect (%)
Give bare numbers, in %.

The cases that follow already have their Percent Effect on record.
>>> print(df.to_string())
                                   compound  meas_value
0       CC(C)CCCNC(=O)Nc1ccc(C(N)=O)c(Cl)c1      -4.358
1  CCS(=O)(=O)N1CCC(NC(=O)c2cc(C(C)C)ccc2O)CC1       11.27
2             COCCCC(=O)N1CCC(Nc2cccnn2)CC1       -18.1
3  CN1CCC/C1=N\S(=O)(=O)c1ccc(NC(=O)c2ccco2)cc1       -21.5
4           COc1ccc(CNc2cnn(C)c(=O)c2Cl)cc1       56.65

Provide Percent Effect for all items below, preserving their order.
1. Cc1ccc(NC2CCN(C(=O)CCc3c(C)noc3C)CC2)nn1
2. CCCc1nc(CN2CCCN(Cc3nccn3C)CC2)no1

1. 23.52
2. 36.47

* * *

- Test system: Leishmania donovani
- measurement_notes: Leishmania intramacrophage assay
- Format: functional, organism-based
- Design: scale not given: in the data most compounds retested in dose-response had high values
- details: 30 µM; 30.03 µM
Out of some 69,000 compounds screened, about 1,000 (1.4%) showed an effect of 50% or more. Only a selection was taken, and strong results are over-represented in it overall.
Values of Percent Effect strictly less than 40% map to Y, and values of at least 40% map to N.

>>> print(df.to_string())
                                   molecule  assigned_category
0  c1ccc(-c2noc(CN3CCC(c4ccn[nH]4)CC3)n2)cc1                  N

We now examine a further molecule.
Consider the molecule Cc1ccc(-c2nnc(SCC(=O)O)n2-c2ccc(C)cc2)cc1 . Is its Percent Effect strictly less than 40%? Y

* * *

- System: Leishmania donovani
- measurement_notes: Leishmania intramacrophage assay
- Assay type: functional, organism-based
- Set-up: scale not given: in the data most compounds retested in dose-response had high values
- details: 30.3 µM; […]
In all, about 69,000 compounds went through this assay and about 1,000 (1.4%) showed an effect of 50% or more. This is one part of a sample in which strong results are shown more often than they occur.
reported_endpoint: Percent Effect (%)
Answers are plain numbers, in %.

Illustrative cases are given below, each with its answer.
>>> print(df.to_string())
                                   compound  reported_endpoint  meas_value
0  Cc1ccccc1-c1noc(CN2CCC(c3ccn[nH]3)CC2)n1     Percent Effect      -17.93
1     c1cc(C2CCN(Cc3nc(C4CC4)no3)CC2)[nH]n1     Percent Effect       12.31
2  O=C(O)C(F)(F)F.O=C(c1ccccc1)N1CCOC2(CCN(Cc3cccs3)CC2)C1     Percent Effect       5.175

Value sought for every listed compound: Percent Effect.
1. Cc1ccc(CN2CCC3(CC2)CC(N2CCN(C)CC2)CO3)s1.O=C(O)C(F)(F)F.O=C(O)C(F)(F)F.O=C(O)C(F)(F)F (stereo not drawn)
2. CCc1cc(CN(C)C(=O)c2cnon2)on1
3. CCNC(=O)NC(=O)CN1CCOC(c2ccccc2Cl)C1 (stereo not drawn)
4. Cc1ccc(-c2nc(CNC(C)CCO)[nH]c2-c2ccccn2)cc1 (stereo not drawn)
5. CCSCC(C)NCc1ccccc1-n1ccnc1 (stereo not drawn)
6. Cc1c(C(C)N)cnn1-c1cccc2ccccc12 (stereo not drawn)

[35.32, 11.76, 7.788, 67.9, -5.681, 22.69]
